Sourced from PubChem BioAssay

molecular target: L-lactate dehydrogenase (Plasmodium falciparum (isolate CDC / Honduras)) (UniProt Q27743); assay: PfLDH activity inhibition – cell lysate, 3D7 strain, counter-screen for P. falciparum growth inhibition project (AID 2304);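 further: 0% = vehicle and 100% = reference inhibitor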; conditions: P. falciparum 3D7 crude extract, LDH APAD/NBT absorbance; at 2 µM; hits give high values
Sequence (Q27743 whole entry, looked up): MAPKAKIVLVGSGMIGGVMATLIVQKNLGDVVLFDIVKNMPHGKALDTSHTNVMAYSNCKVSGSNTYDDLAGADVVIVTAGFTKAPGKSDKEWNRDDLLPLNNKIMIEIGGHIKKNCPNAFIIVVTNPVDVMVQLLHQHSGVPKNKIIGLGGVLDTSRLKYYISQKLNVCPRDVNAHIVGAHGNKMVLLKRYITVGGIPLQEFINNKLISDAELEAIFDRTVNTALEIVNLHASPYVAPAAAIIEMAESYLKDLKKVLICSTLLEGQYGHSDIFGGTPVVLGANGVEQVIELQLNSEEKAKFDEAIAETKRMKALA
Collected inhibition values appear next to each entry.
Numeric answer only, unit % assumed.

The examples below pair each entry with its known result.
Query block: Bench note: what inhibition did CC(c1cccc(S(=O)(=O)NCc2ccc(Cl)cc2Cl)c1)N1CCC(N2CCCCC2)CC1 (centres undefined) show?
Result block: -2

Query block: Bench note: what inhibition did OCCN1CCN(Cc2ccc(-c3ccc(-c4nc5ccc(F)cc5[nH]4)cc3)cc2)CC1 show?
Result block: -5

Query block: Bench note: what inhibition did Cc1[nH]c2ccc(-c3ccc(N(C)C)cc3)cc2c(=O)c1Cl show?
Result block: 5

Query block: Bench note: what inhibition did CC(=O)c1c(Cc2ccccc2Cl)c[nH]c1C show?
Result block: 0

Query block: Bench note: what inhibition did O=C(Cn1nc(Br)nc1[N+](=O)[O-])NCC1CCCCC1 show?
Result block: -5

Query block: Bench note: what inhibition did O=C(Nc1ccc(C(F)(F)F)cc1)NC1CCN(c2ccnc3cc(Cl)ccc23)CC1 show?
Result block: -3

Query block: Bench note: what inhibition did CCOC(=O)NC1=NC(C)(C)N(OCc2ccc(Cl)c(Cl)c2)C(NC(=O)OCC)=N1 show?
Result block: 2

Query block: Bench note: what inhibition did CC(C)Nc1cc(C(=O)N[C@@H](Cc2ccccc2)[C@H](O)CNCc2cccc(C(F)(F)F)c2)c(F)c(N2CCCCS2(=O)=O)c1 show?
Result block: -2

Query block: Bench note: what inhibition did Cc1cc(N[C@@H](CC(C)C)C(=O)NCCOc2ccccc2)nc(NCCc2ccccc2)n1 show?
Result block: -1

Query block: Bench note: what inhibition did C[C@H](Cc1ccc(CCc2ccc(C[C@@H](C)NC[C@H](O)c3cccc(Cl)c3)cc2)cc1)NC[C@H](O)c1cccc(Cl)c1 show?
Result block: 2

Further cases:
Query block: Bench note: what inhibition did CCCNC(=O)Nc1cc2cc(-c3cccc(CN4CCCCC4)c3)ccc2n2c(C)nnc12 show?
Result block: 0

Query block: Bench note: what inhibition did Cc1cccc2[nH]c(-c3ccc(-c4ccc(CN5CCCC5CN)cc4)cc3)nc12 (centres undefined) show?
Result block: 1

Query block: Bench note: what inhibition did C#CCCC(=O)Nc1cccc(-c2cccc(-c3nc4ccc(C(F)(F)F)cc4[nH]3)c2)c1 show?
Result block: -4

Query block: Bench note: what inhibition did Cc1cc(NN=Cc2ccccc2Cl)c2ccc(F)cc2n1 show?
Result block: -4

Query block: Bench note: what inhibition did COc1cccc(NC(=O)c2cc(C(=O)Nc3cccc(OC)c3)cc([N+](=O)[O-])c2)c1 show?
Result block: -3

Query block: Bench note: what inhibition did O=C(NCCc1ccccc1)c1cc(-c2cccnc2)cnc1NCC1CC1 show?
Result block: 6

Query block: Bench note: what inhibition did CCCCCCN1CCC(NCc2ccc(C(F)(F)F)cc2)CC1 show?
Result block: -2

Query block: Bench note: what inhibition did Cc1cc(NC(=O)Nc2ccc(Cl)cc2F)c2ccccc2n1 show?
Result block: 2

Query block: Bench note: what inhibition did O=C(/C=C/c1ccc(Cl)c(Cl)c1)NCCCCCN1CCC(NC(=O)c2cc(Cl)ccc2F)CC1 show?
Result block: 4

Query block: Bench note: what inhibition did O=C(/C=C/c1ccc(Cl)c(Cl)c1)NCCCCCN1CCC(NC(=O)Nc2ccc(Cl)cc2F)CC1 show?
Result block: -8

Query block: Bench note: what inhibition did NCc1cccc(-c2ccccc2CNC2CCN(Cc3ccccc3)CC2)c1 show?
Result block: -2

Query block: Bench note: what inhibition did Cc1ccc(C)c(S(=O)(=O)NCC2CCN(Cc3ccc(O)cc3)CC2)c1 show?
Result block: -6

Query block: Bench note: what inhibition did CC1(C)C(N(O)C(=O)Nc2ccc(Cl)c(Cl)c2)N(c2ccc(Cl)c(Cl)c2)C(=O)N1CCc1ccccc1 (centres undefined) show?
Result block: -1

Query block: Bench note: what inhibition did Cc1cc(N)cc2[nH]c(-c3ccc(N)cc3)nc12 show?
Result block: -11

Query block: Bench note: what inhibition did CC1CN(CC(O)Cn2c3ccc(Br)cc3c3cc(Br)ccc32)CC(C)O1 (centres undefined) show?
Result block: 3

Query block: Bench note: what inhibition did Cc1cccc(CNc2ncc(C)c(NCCC(=O)Nc3ccccc3)n2)c1 show?
Result block: 5

Query block: Bench note: what inhibition did CN1c2ccccc2Sc2cc(CNCCSCCNCc3ccc4c(c3)Sc3ccccc3N4C)ccc21 show?
Result block: 0

Query block: Bench note: what inhibition did CNC(=O)Cc1ccc(C(=O)Nc2cccc(-c3cccc(-c4nc5ccc(C(F)(F)F)cc5[nH]4)c3)c2)cc1 show?
Result block: 5
